# target-or-system: κ opioid receptor (KOR) (Homo sapiens)
# assay-method-text: Radioligand competition binding, KOR ([3H]-U69593), HEK293 cell homogenates
# measurement-conditions: read-out: KOR % (percent inhibition), at 10,000 nM; [3H]-U69593
Cut-off 40% on inhibition at 10 µM, inclusive. At or above means Y; below means N.

INSERT INTO assay_data (compound, class_assignment) VALUES
  ('C#Cc1ccc2c(c1)C(c1ccccc1F)=NCc1c(C(=O)OCc3ccccc3)ncn1-2 [MP-II-075]', 'Y'),
  ('C#Cc1ccc2c(c1)C(c1ccccn1)=N[C@H](C)c1c(C(=O)OC)ncn1-2 [GL-II-32]', 'N'),
  ('C#Cc1ccc2c(c1)C(c1ccccn1)=NCc1c(C(=O)OC(C)C)ncn1-2 [MP-II-068]', 'Y'),
  ('C#Cc1ccc2c(c1)C(c1ccccc1F)=NCc1c(-c3cnco3)ncn1-2 [KRM-II-18B]', 'Y'),
  ('C#Cc1ccc2c(c1)C(c1ccccn1)=N[C@H](C)c1c(C(=O)NC)ncn1-2 [GL-II-31]', 'N'),
  ('C#Cc1ccc2c(c1)C(c1ccccn1)=NCc1c(-c3cnco3)ncn1-2 [KRM-III-67]', 'Y'),
  ('C#Cc1ccc2c(c1)C(c1ccccc1F)=N[C@H](C)c1c(C(N)=O)ncn1-2 [MP-III-019.B]', 'Y'),
  ('C[C@H]1N=C(c2ccccc2F)c2cc(Br)ccc2-n2cnc(C(=O)O)c21 [GL-II-93]', 'N');

* * *

# target-or-system: δ opioid receptor (DOR) (Homo sapiens)
# assay-method-text: Radioligand competition binding, DOR ([3H]-DADLE), HEK293 cell homogenates
# measurement-conditions: read-out: DOR % (percent inhibition), at 10,000 nM
Measured inhibition at 10 µM of individual entries
measurement-kind: inhibition at 10 µM (%)

INSERT INTO measurements (compound, unit_tag, number) VALUES
  ('C#Cc1ccc2c(c1)C(c1ccccc1F)=N[C@@H](C)c1c(C(=O)OCC)ncn1-2 [SH-053-2′F-S-CH3]', '%', 36),
  ('C#Cc1ccc2c(c1)C(c1ccccc1F)=N[C@H](C)c1c(C(=O)NCC)ncn1-2 [GL-II-74]', '%', 0),
  ('Brc1ccc2c(c1)C(c1ccccn1)=NCc1c(-c3cnco3)ncn1-2 [KRM-II-97]', '%', 8),
  ('C#Cc1ccc2c(c1)C(c1ccccc1F)=N[C@@H](C)c1c(C(=O)OC(C)C)ncn1-2 [GL-I-31]', '%', 8),
  ('C#Cc1ccc2c(c1)C(c1ccccc1F)=N[C@@H](C)c1c(C(=O)OC(C)(C)C)ncn1-2 [GL-I-30]', '%', 7),
  ('C#Cc1ccc2c(c1)C(c1ccccc1F)=N[C@@H](C)c1c(C(N)=O)ncn1-2 [MP-III-018.B]', '%', 10),
  ('C[C@H]1N=C(c2ccccn2)c2cc(Br)ccc2-n2cnc(C(=O)O)c21 [GL-II-51]', '%', 0),
  ('C#Cc1ccc2c(c1)C(c1ccccn1)=N[C@H](C)c1c(C(=O)O)ncn1-2 [GL-II-30]', '%', 4),
  ('Cc1ncoc1-c1ncn2c1CN=C(c1ccccc1F)c1cc(Br)ccc1-2 [KRM-III-59]', '%', 11),
  ('C#Cc1ccc2c(c1)C(c1ccccn1)=NCc1c(-c3ocnc3C)ncn1-2 [KRM-III-79]', '%', 1),
  ('C#Cc1ccc2c(c1)C(c1ccccn1)=NCc1c(-c3cnco3)ncn1-2 [KRM-III-67]', '%', 3),
  ('C#Cc1ccc2c(c1)C(c1ccccc1F)=N[C@H](C)c1c(C(N)=O)ncn1-2 [MP-III-019.B]', '%', 0),
  ('C#Cc1ccc2c(c1)C(c1ccccn1)=N[C@H](C)c1c(C(=O)OCC)ncn1-2 [GL-II-19]', '%', 2),
  ('C#Cc1ccc2c(c1)C(c1ccccc1F)=N[C@H](C)c1c(C(=O)OCC)ncn1-2 [SH-053-2′F-R-CH3]', '%', 32),
  ('C#Cc1ccc2c(c1)C(c1ccccc1F)=N[C@@H](C)c1c(C(=O)OC)ncn1-2 [MP-III-021]', '%', 22),
  ('C#Cc1ccc2c(c1)C(c1ccccc1F)=N[C@@H](C)c1c(C(=O)SCC)ncn1-2 [GL-I-77]', '%', 4),
  ('C#Cc1ccc2c(c1)C(c1ccccc1F)=NCc1c(C(=O)OCc3ccccc3)ncn1-2 [MP-II-075]', '%', 16),
  ('C#Cc1ccc2c(c1)C(c1ccccc1F)=N[C@@H](C)c1c(C(=O)NC(C)(C)C)ncn1-2 [GL-I-41]', '%', 10),
  ('Brc1ccc2c(c1)C(c1ccccc1)=NCc1c(-c3cnco3)ncn1-2 [KRM-II-73]', '%', 32),
  ('C#Cc1ccc2c(c1)C(c1ccccc1F)=N[C@H](C)c1c(C(=O)NC(C)C)ncn1-2 [GL-III-66]', '%', 0),
  ('C[C@H]1N=C(c2ccccc2F)c2cc(Br)ccc2-n2cnc(C(=O)N(C)C)c21 [GL-III-69]', '%', 10),
  ('C#Cc1ccc2c(c1)C(c1ccccc1F)=N[C@@H](C)c1c(C(=O)OCCC)ncn1-2 [GL-I-32]', '%', 14),
  ('C#Cc1ccc2c(c1)C(c1ccccc1F)=N[C@H](C)c1c(C(=O)NC3CC3)ncn1-2 [GL-II-75]', '%', 3),
  ('C#Cc1ccc2c(c1)C(c1ccccn1)=NCc1c(C(=O)OCC)ncn1-2 [Hz-166]', '%', 49),
  ('C#Cc1ccc2c(c1)C(c1ccccc1F)=N[C@@H](C)c1c(C(=O)OC3CC3)ncn1-2 [GL-I-38]', '%', 16),
  ('C#Cc1ccc2c(c1)C(c1ccccc1F)=N[C@H](C)c1c(C(=O)N3CCCC3)ncn1-2 [GL-II-76]', '%', 0),
  ('CCOC(=O)c1ncn2c1[C@@H](C)N=C(c1ccccn1)c1cc(Br)ccc1-2 [GL-II-06]', '%', 9),
  ('Cc1ncoc1-c1ncn2c1CN=C(c1ccccn1)c1cc(Br)ccc1-2 [KRM-II-81]', '%', 15),
  ('C#Cc1ccc2c(c1)C(c1ccccn1)=N[C@H](C)c1c(C(=O)NC)ncn1-2 [GL-II-31]', '%', 3),
  ('CCNC(=O)c1ncn2c1[C@@H](C)N=C(c1ccccc1F)c1cc(C3CC3)ccc1-2 [GL-III-68]', '%', 10),
  ('C#Cc1ccc2c(c1)C(c1ccccn1)=NCc1c(C(=O)O)ncn1-2 [SR-II-54]', '%', 1),
  ('C#Cc1ccc2c(c1)C(c1ccccc1F)=N[C@H](C)c1c(C(=O)N(C)C)ncn1-2 [GL-II-73]', '%', 0),
  ('Fc1ccccc1C1=NCc2c(-c3cnco3)ncn2-c2ccc(Br)cc21 [SH-I-85]', '%', 33),
  ('C#Cc1ccc2c(c1)C(c1ccccc1F)=N[C@@H](C)c1c(C(=O)O)ncn1-2 [SH-053-2′F-S-CH3-Acid]', '%', 18);

* * *

# target-or-system: κ opioid receptor (KOR) (Homo sapiens, UniProt P41145)
# assay-method-text: Radioligand competition binding, KOR ([3H]-U69593), HEK293 cell homogenates
# measurement-conditions: read-out: KOR % (percent inhibition), at 10,000 nM; [3H]-U69593
Catalogue of inhibition at 10 µM readings, one per entry.
measurement-kind: inhibition at 10 µM (%)

INSERT INTO measurements (given_smiles, measurement_kind, number) VALUES
  ('COC(=O)c1ncn2c1[C@@H](C)N=C(c1ccccc1F)c1cc(Br)ccc1-2', 'inhibition at 10 µM', 84),
  ('C#Cc1ccc2c(c1)C(c1ccccc1F)=N[C@H](C)c1c(C(=O)NC(C)C)ncn1-2', 'inhibition at 10 µM', 63),
  ('C[C@H]1N=C(c2ccccc2F)c2cc(Br)ccc2-n2cnc(C(=O)N(C)C)c21', 'inhibition at 10 µM', 75),
  ('C#Cc1ccc2c(c1)C(c1ccccc1F)=N[C@@H](C)c1c(C(=O)N(C)C)ncn1-2', 'inhibition at 10 µM', 78);

* * *

# target-or-system: κ opioid receptor (KOR) (Homo sapiens, UniProt P41145)
# assay-method-text: Radioligand competition binding, KOR ([3H]-U69593), HEK293 cell homogenates
# measurement-conditions: read-out: KOR (Ki); [3H]-U69593, HEK293 homogenates
pKi: −log10 of the molar value.
measurement-kind: pKi

INSERT INTO measurements (molecule, number) VALUES
  ('Cc1noc(-c2ncn3c2[C@@H](C)N=C(c2ccccc2F)c2cc(C4CC4)ccc2-3)n1 [GL-III-63]', 6.17),
  ('C#Cc1ccc2c(c1)C(c1ccccc1F)=N[C@@H](C)c1c(-c3nc(C)no3)ncn1-2 [GL-I-65]', 6.65),
  ('C[C@@H]1N=C(c2ccccc2F)c2cc(Br)ccc2-n2cnc(-c3cnco3)c21 [GL-III-76]', 6.66),
  ('C#Cc1ccc2c(c1)C(c1ccccn1)=N[C@H](C)c1c(-c3nc(CC)no3)ncn1-2 [GL-II-54]', 6.30),
  ('Cc1noc(-c2ncn3c2[C@@H](C)N=C(c2ccccc2F)c2cc(Br)ccc2-3)n1 [GL-III-60]', 6.63),
  ('CCc1noc(-c2ncn3c2[C@@H](C)N=C(c2ccccc2F)c2cc(C4CC4)ccc2-3)n1 [GL-IV-03]', 6.63),
  ('C#Cc1ccc2c(c1)C(c1ccccc1F)=N[C@@H](C)c1c(-c3nc(CC)no3)ncn1-2 [GL-I-66]', 6.67),
  ('C#Cc1ccc2c(c1)C(c1ccccc1F)=NCc1c(C(=O)OCc3ccccc3)ncn1-2 [MP-II-075]', 6.26),
  ('C#Cc1ccc2c(c1)C(c1ccccc1F)=N[C@H](C)c1c(-c3nc(C)no3)ncn1-2 [MP-IV-004]', 6.35),
  ('C#Cc1ccc2c(c1)C(c1ccccc1F)=N[C@H](C)c1c(-c3nc(C(C)C)no3)ncn1-2 [MP-IV-010]', 6.84),
  ('C#Cc1ccc2c(c1)C(c1ccccc1F)=N[C@@H](C)c1c(-c3cnco3)ncn1-2 [GL-III-78]', 6.35),
  ('C[C@H]1N=C(c2ccccc2F)c2cc(Br)ccc2-n2cnc(-c3cnco3)c21 [GL-III-36]', 6.61),
  ('Cc1noc(-c2ncn3c2[C@@H](C)N=C(c2ccccn2)c2cc(C4CC4)ccc2-3)n1 [GL-III-64]', 5.69),
  ('C#Cc1ccc2c(c1)C(c1ccccc1F)=N[C@@H](C)c1c(-c3nc(C(C)C)no3)ncn1-2 [GL-I-81]', 6.90),
  ('C#Cc1ccc2c(c1)C(c1ccccc1F)=N[C@H](C)c1c(-c3cnco3)ncn1-2 [GL-III-73]', 6.35);
